Source listed as the supplement of paper PMC6805474.

test system: Schistosoma mansoni schistosomula (LE); test: XTT viability relative to DMSO control; higher = more viable (less active); details: 72 h; 10 µM
Assign XTT viability to each entry below.
Dear colleague, please return just the value in %, with no unit written.

I'd like to know its XTT viability. The molecule in question is CCOc1ccc(-c2nc(NC(=O)CS(=O)(=O)c3ccccc3)sc2C)cc1
61.8

I'd like to know its XTT viability. The molecule in question is O=C(CN1CCOCC1)Nc1ccc2ncnc(Nc3ccc(OCc4cccc(F)c4)c(Cl)c3)c2c1
125

I'd like to know its XTT viability. The molecule in question is O=S(=O)(c1ccc(Cl)cc1)N1CCN(C(=S)NCc2ccco2)CC1
75.2

I'd like to know its XTT viability. The molecule in question is Cn1ncc2c(N3CCOCC3)nc(NCCc3c[nH]c4ccccc34)nc21
71.8

I'd like to know its XTT viability. The molecule in question is COc1cc(NC(=O)Cc2nn(C)c(=O)c3ccccc23)ccc1Cl
104

I'd like to know its XTT viability. The molecule in question is Cc1ccc2nc(Cl)c(CNCc3cccs3)cc2c1
83.2

I'd like to know its XTT viability. The molecule in question is COc1ccc(C2(C(=O)Nc3ccc(Br)cc3)CCCC2)cc1
91

I'd like to know its XTT viability. The molecule in question is O=C(Nc1cccc(-c2ccc(NCCCN3CCCC3)nc2)c1)c1ccccc1
67.8

I'd like to know its XTT viability. The molecule in question is C[C@H](c1ccc2c(c1)CCCC2)N(C)c1ncc2c(N)nc(N)nc2n1
39.1

I'd like to know its XTT viability. The molecule in question is CN1CCN(S(=O)(=O)c2ccc(-c3ccc4c(Nc5ncc(Cl)cn5)ccnc4c3)cc2)CC1
32.4
